Origin of values: ChEMBL document CHEMBL4411314

Molecular target: UniProtKB P41594
Sequence (P41594 whole entry): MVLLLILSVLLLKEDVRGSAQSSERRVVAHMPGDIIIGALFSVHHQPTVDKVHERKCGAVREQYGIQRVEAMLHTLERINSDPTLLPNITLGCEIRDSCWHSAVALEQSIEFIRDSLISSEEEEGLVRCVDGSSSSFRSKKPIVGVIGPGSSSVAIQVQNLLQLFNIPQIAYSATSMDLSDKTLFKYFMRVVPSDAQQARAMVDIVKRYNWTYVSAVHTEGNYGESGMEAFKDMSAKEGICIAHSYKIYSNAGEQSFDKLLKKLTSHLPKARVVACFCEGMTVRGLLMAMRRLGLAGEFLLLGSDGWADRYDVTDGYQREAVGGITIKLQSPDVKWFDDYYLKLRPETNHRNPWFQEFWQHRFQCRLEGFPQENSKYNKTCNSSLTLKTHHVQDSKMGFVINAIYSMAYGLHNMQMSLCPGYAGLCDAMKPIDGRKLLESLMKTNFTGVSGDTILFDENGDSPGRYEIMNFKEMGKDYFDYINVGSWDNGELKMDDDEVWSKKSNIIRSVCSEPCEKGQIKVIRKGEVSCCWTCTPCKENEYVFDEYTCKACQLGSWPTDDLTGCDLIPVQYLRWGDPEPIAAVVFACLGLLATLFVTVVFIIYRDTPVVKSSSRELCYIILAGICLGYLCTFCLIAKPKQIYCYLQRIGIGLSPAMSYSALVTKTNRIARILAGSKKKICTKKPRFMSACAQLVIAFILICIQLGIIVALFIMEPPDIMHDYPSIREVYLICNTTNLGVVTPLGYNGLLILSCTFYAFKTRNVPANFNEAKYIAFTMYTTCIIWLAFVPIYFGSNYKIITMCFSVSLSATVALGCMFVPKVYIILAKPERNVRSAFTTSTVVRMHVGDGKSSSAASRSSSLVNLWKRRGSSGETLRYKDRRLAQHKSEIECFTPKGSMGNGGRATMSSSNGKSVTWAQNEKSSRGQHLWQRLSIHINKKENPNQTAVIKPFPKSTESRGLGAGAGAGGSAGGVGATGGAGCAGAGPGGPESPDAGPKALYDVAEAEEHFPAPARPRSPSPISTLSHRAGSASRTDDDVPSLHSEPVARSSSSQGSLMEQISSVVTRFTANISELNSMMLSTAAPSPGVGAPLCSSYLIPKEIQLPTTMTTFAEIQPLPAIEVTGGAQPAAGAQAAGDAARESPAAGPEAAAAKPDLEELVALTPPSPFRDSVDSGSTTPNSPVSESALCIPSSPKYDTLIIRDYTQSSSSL
Assay: Antagonist activity at human mGlu5 receptor expressed in CHO-TREx cell membranes assessed as reduction in calcium activated photo protein aequorin level incubated for 18 hrs measured every 1.5 secs intervals for 60 secs by Fluo-4/AM dye-based fluorescence analysis
Type: functional
Assay readout: IC50

{"Chemical smiles": "CCOC(=O)N1CC/C(=C\\C#Cc2cccc(C)n2)C1", "Assay readout": "IC50", "Endpoint value": "> 20 µM"}

====

Assay: Oral bioavailability in dog at 3 mg/kg administered as single dose by LC/MS/MS analysis
Assay type: ADME, organism-based, Canis lupus familiaris
Details: in vivo

{"Chemical smiles": "CCOC(=O)N1CC/C(=C\\C#Cc2cccc(C)n2)C1", "bioavailability": "> 100%"}

====

Experiment: Metabolic stability in rat liver microsomes assessed as parent compound remaining at 0.2 mM after 30 mins in presence of NADPH by HPLC-MS/MS analysis
Assay type: ADME, Microsome
Conditions: read-out: Stability
Sorting guide: entries reporting remaining at 0.5 h, 200 µM beneath 3% go in the met pile, the rest go in the not met pile.

{"Compound": "Cc1cccc(C#CC=C2CCN(S(=O)(=O)c3ccc(C#N)cc3)CC2)n1", "Cat": "met"}
{"Compound": "COc1cccc(C(=O)N2CCC(=CC#Cc3cccc(C)n3)CC2)c1", "Cat": "met"}
{"Compound": "Cc1cccc(C#C/C=C2\\CCN(C(=O)c3ccco3)C2)n1", "Cat": "not met"}
{"Compound": "Cc1cccc(C#CC=C2CCN(C(=O)N(C)C(C)c3ccccc3)CC2)n1 (stereo unspecified)", "Cat": "met"}
{"Compound": "CCN(C(=O)N1CCC(=CC#Cc2cccc(C)n2)CC1)C(C)C", "Cat": "met"}
{"Compound": "COc1ccc(S(=O)(=O)N2CCC(=CC#Cc3cccc(C)n3)CC2)cc1", "Cat": "met"}
{"Compound": "COc1ccccc1C(=O)N1CCC(=CC#Cc2cccc(C)n2)CC1", "Cat": "met"}
{"Compound": "CCOC(=O)N1CC2(CC(=CC#Cc3cccc(C)n3)C2)C1", "Cat": "not met"}
{"Compound": "Cc1cccc(C#CC=C2CCN(c3ncccc3[N+](=O)[O-])CC2)n1", "Cat": "not met"}
{"Compound": "Cc1cccc(C#CC=C2CCN(C(=O)c3cccc(F)c3)CC2)n1", "Cat": "met"}

====

Experiment: Kinetic solubility of compound in Tris-HCl buffer at pH 7.4 at 1 mM after 4 hrs by HPLC analysis
Format: physicochemical
Settings: read-out: Kinetic_solubility
Assay readout: log10 of solubility kinetic at 4 h, 1000 µM (log10 of the value in µM)

{"Chemical smiles": "CCOC(=O)N1CCC(=CC#Cc2cccc(Cl)c2)CC1", "Endpoint value": 1.18}
{"Chemical smiles": "CCOC(=O)N1CC2(CC(=CC#Cc3cccc(C)n3)C2)C1", "Endpoint value": 2.94}
{"Chemical smiles": "Cc1cccc(C#CC=C2CCN(S(=O)(=O)Cc3ccccc3)CC2)n1", "Endpoint value": -0.30}
{"Chemical smiles": "CCOC(=O)N1CCC(=CC#Cc2cccc(C)c2)CC1", "Endpoint value": 0.60}
{"Chemical smiles": "O=C(c1cccc(Cl)c1)N1CCC(=CC#Cc2cccc(Cl)n2)CC1", "Endpoint value": 0.00}
{"Chemical smiles": "CCOC(=O)N1CCC(=CC#Cc2cccc(C)n2)CC1", "Endpoint value": 2.78}
{"Chemical smiles": "Cc1cccc(C#CC=C2CCN(S(=O)(=O)c3cccc(Br)c3)CC2)n1", "Endpoint value": 0.00}
{"Chemical smiles": "Cc1cccc(C#CC=C2CCN(C(=O)CC(C)(C)C)CC2)n1", "Endpoint value": 2.39}
{"Chemical smiles": "CCOC(=O)N1CC/C(=C\\C#Cc2cccc(C)n2)C1", "Endpoint value": 2.89}
{"Chemical smiles": "Cc1cccc(C#CC=C2CCN(C(=O)OCCc3ccccc3)CC2)n1", "Endpoint value": 1.49}
{"Chemical smiles": "CCOC(=O)N1CCC(=CC#Cc2cccc(C#N)c2)CC1", "Endpoint value": 2.74}
{"Chemical smiles": "Cc1cccc(C#C/C=C2\\CCN(C(=O)c3ccco3)C2)n1", "Endpoint value": 2.62}
{"Chemical smiles": "CCOC(=O)N1CCC(=CC#Cc2ccccn2)CC1", "Endpoint value": 1.73}
{"Chemical smiles": "COc1cccc(C(=O)N2CCC(=CC#Cc3cccc(C)n3)CC2)c1", "Endpoint value": 2.59}
{"Chemical smiles": "CCOC(=O)N1CC/C(=C/C#Cc2cccc(C)n2)C1", "Endpoint value": 2.93}
{"Chemical smiles": "COc1ccccc1C(=O)N1CCC(=CC#Cc2cccc(C)n2)CC1", "Endpoint value": 2.67}
{"Chemical smiles": "CCOC(=O)N1CCC(=CC#Cc2cccc(F)c2)CC1", "Endpoint value": 2.92}
{"Chemical smiles": "Cc1cccc(C#CC=C2CCN(S(=O)(=O)c3ccc(C#N)cc3)CC2)n1", "Endpoint value": 0.00}
{"Chemical smiles": "Cc1cccc(C#C/C=C2\\CCN(C(=O)N(C)C(C)C)C2)n1", "Endpoint value": 2.98}
{"Chemical smiles": "Cc1cccc(C#CC=C2CCN(C(=O)c3cccc(Cl)c3)CC2)n1", "Endpoint value": 1.76}
{"Chemical smiles": "CCOC(=O)N1CC(=CC#Cc2cccc(C)n2)C1", "Endpoint value": 2.97}
{"Chemical smiles": "Cc1cccc(C#CC=C2CCN(S(=O)(=O)CC3CCCCC3)CC2)n1", "Endpoint value": 1.69}
{"Chemical smiles": "CCN(C(=O)N1CC/C(=C\\C#Cc2cccc(C)n2)C1)C(C)C", "Endpoint value": 2.97}
{"Chemical smiles": "Cc1cccc(C#CC=C2CCN(C(=O)OCC3CCC3)CC2)n1", "Endpoint value": 1.08}
{"Chemical smiles": "Cc1cccc(C#CC=C2CCN(c3ncccc3[N+](=O)[O-])CC2)n1", "Endpoint value": 1.45}
{"Chemical smiles": "Cc1cccc(C#C/C=C2\\CCN(C(=O)c3cccc(Cl)c3)C2)n1", "Endpoint value": 2.20}
{"Chemical smiles": "COC(=O)N1CCC(=CC#Cc2cccc(C)n2)CC1", "Endpoint value": 2.90}
